protocol.text: chemical genetic growth profiling, strain panel (AID 1159580);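 note: tested at 20 µM; growth read once vehicle control cultures reached saturation at 30 °C; 1 = growth at the plate median or of vehicle wells; lower values mean less growth of the strain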
condition.set: S. cerevisiae deletion strains, growth OD, locus YHR079C, strain IRE1 (second series), stronger effect = lower value
About 2,000 (36%) of roughly 5,500 compounds were called active. Roughly 18% stayed inconclusive and do not appear here. This is one part of the list.
normalized growth overview
quantity: normalized growth

compound	numeric.value
C=C1c2c(Cl)ccc(O)c2C(O)=C2C(=O)[C@]3(O)C(O)=C(C(N)=O)C(=O)[C@@H](N(C)C)[C@@H]3[C@@H](O)[C@H]12	0.961
COc1cc(C(C)=O)cc(OC)c1O	0.999
Cc1c(C)c2c(c(C)c1O)CCC(C)(CCCC(C)CCCC(C)CCCC(C)C)O2 (stereo not given)	1
COC(=O)c1c(OC)cc2c(c1C)Oc1c(Cl)c(OC(C)=O)c(Cl)c(C)c1C(=O)O2	0.997
C[n+]1ccccc1/C=N/O	0.995
CC(=O)c1ccc(O)c(CC=C(C)C)c1	0.959
COC(=O)c1c(OC)cc2c(c1C)Oc1c(Cl)c(O)c(Cl)c(C)c1C(=O)O2	0.943
CC(=O)OC1CCC2(C)C(CC(OC(C)=O)C3(C)C4=CC(=O)OC(c5ccoc5)C4(C)CCC23)C1(C)C (stereo not given)	0.972
CC(C)=CC1C(C(=O)O)C1(C)C (stereo not given)	0.988
CC(Cc1cccc(C(F)(F)F)c1)NCCOC(=O)c1ccccc1 (stereo not given)	1
Cc1cc(=O)oc2cc(O)c(O)cc12	1.01
CCOC(=O)NNc1nncc2ccccc12	0.983
CC(=O)O[C@@H]1CC2C(C)(C)[C@H](O)C=C[C@]2(C)C2CC[C@]3(C)C(=CC(=O)O[C@H]3c3ccoc3)[C@@]21C (stereo not given in full)	1
CCC(C)C(=O)OC1[C@@H]2CC3=C4CC(=O)O[C@@H](c5ccoc5)[C@]4(C)CCC3[C@@](C)(C2=O)[C@@H](CC(=O)OC)C1(C)C (stereo not given in full)	1.01
O=C1NC(O)=NC1(c1ccccc1)c1ccccc1	1.03
CC(=O)O[C@H]1CC[C@@]2(C)C(C[C@@H](OC(C)=O)[C@@]3(C)C4=CC(=O)O[C@@H](c5ccoc5)[C@]4(C)CCC23)C1(C)C (stereo not given in full)	0.993
N=C(N)N	0.977
COC(=O)c1c(C)c2c(c(C)c1O)OC(=O)c1c(C)c(Cl)c(O)c(Cl)c1O2	1.03
NCCCCCCNS(=O)(=O)c1cccc2c(Cl)cccc12	0.978
CS(=O)(=O)c1ccc([C@@H](O)[C@@H](CO)NC(=O)C(Cl)Cl)cc1	0.998
O=C(O)c1cc(O)c2c(c1)[C@@H]([C@H]1c3cc(C(=O)O)cc(O)c3C(=O)c3c(O[C@H]4O[C@H](CO)[C@@H](O)[C@H](O)[C@H]4O)cccc31)c1cccc(O[C@H]3O[C@H](CO)[C@@H](O)[C@H](O)[C@H]3O)c1C2=O	1
CN(C)CCCN1c2ccccc2CCc2ccccc21	0.989
OC[C@H]1O[C@@H](O[C@H]2[C@H](O)[C@@H](O)[C@@H](O)O[C@@H]2CO)[C@H](O)[C@@H](O)[C@@H]1O	1.01
CN(C)[C@@H]1C(=O)C(C(N)=O)=C(O)[C@@]2(O)C(=O)C3=C(O)c4c(O)ccc(Cl)c4[C@@H](O)[C@H]3C[C@@H]12	0.976
CC(=O)O[C@@H]1C=C[C@@]2(C)C(C[C@@H](OC(C)=O)[C@@]3(C)C4=CC(=O)O[C@@H](c5ccoc5)[C@]4(C)CCC23)C1(C)C (stereo not given in full)	0.0734
C[C@H]1c2cccc(O)c2C(O)=C2C(=O)[C@]3(O)C(O)=C(C(N)=O)C(=O)[C@@H](N(C)C)[C@@H]3[C@@H](O)[C@@H]21	0.978
CC(=O)O[C@@H]1CC[C@@]2(C)C(C[C@@H](OC(C)=O)[C@@]3(C)C4=CC(=O)O[C@@H](c5ccoc5)[C@]4(C)CCC23)C1(C)C (stereo not given in full)	1
NNCc1cccc(O)c1	0.987
CN(C)CCCN1c2ccccc2CCc2ccc(Cl)cc21	0.992
COc1ccc(C2Sc3ccccc3N(CCN(C)C)C(=O)C2OC(C)=O)cc1 (stereo not given)	1.03
